Target: RORγ (Homo sapiens)
Sequence (P51449 whole entry, looked up, the tested form may be a part): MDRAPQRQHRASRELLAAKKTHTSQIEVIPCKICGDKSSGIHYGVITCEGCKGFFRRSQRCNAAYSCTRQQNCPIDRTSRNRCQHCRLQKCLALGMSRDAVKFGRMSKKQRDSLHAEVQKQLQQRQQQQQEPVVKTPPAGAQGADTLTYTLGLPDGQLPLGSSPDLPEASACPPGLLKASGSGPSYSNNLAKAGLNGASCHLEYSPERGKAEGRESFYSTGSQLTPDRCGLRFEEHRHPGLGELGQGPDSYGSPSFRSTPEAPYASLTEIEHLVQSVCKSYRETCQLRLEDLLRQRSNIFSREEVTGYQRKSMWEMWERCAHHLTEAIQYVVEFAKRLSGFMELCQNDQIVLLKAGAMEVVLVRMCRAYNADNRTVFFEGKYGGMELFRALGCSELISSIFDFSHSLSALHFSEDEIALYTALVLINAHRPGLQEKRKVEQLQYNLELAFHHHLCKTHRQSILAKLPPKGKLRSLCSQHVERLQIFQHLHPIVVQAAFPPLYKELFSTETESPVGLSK
Experiment: RORγ Gal4 Reporter Gene Assay
Assay type: cell-based
Description: Determination of a ligand mediated Gal4 promoter driven transactivation to quantify ligand binding to RORγ was performed as follows: DNA encoding three different RORγ protein fragments was cloned into vector pCMV-BD (Stratagene). Expression was under control of a CMV promoter and as fusion to the DNA-binding domain of the yeast protein GAL4. […]
pIC50 (FF) reference

stdin: Query for RORγ (Homo sapiens): what pIC50 (FF) does the record show for CC(C)(C)NS(=O)(=O)c1ccc(-c2oc(C(=O)NC3CCC(C)(C(=O)O)CC3)nc2CC2CCCCC2)c2ccccc12 (stereo not shown) [100/22] ?
stdout: 5.9/6.8/7.0

stdin: Query for RORγ (Homo sapiens): what pIC50 (FF) does the record show for CC1(c2cc(C(=O)NCC(F)(F)F)cc(-c3sc(C(=O)N[C@H]4C[C@H](C(=O)O)C4)nc3CC3CCCCC3)c2)CC1 [7/6] ?
stdout: 6.2/7.1/7.2

stdin: Query for RORγ (Homo sapiens): what pIC50 (FF) does the record show for CC(C)(C)NS(=O)(=O)c1ccc(-c2oc(C(=O)N3CC4(CCSCC4)C3)nc2CC2CCCCC2)c2ccccc12 [100/11] ?
stdout: 6.8/7.1/7.3
